# method: Equilibrium solubility of Compound 1 (HPLC)
# Assay type: physicochemical
# condition parameters: aqueous with cosolvent or surfactant or cyclodextrin, thermodynamic from solid; 20% Solutol, pH 7.0
parameter: solubility thermodynamic

Returns the measured solubility thermodynamic for the input molecule. Input: C[C@@H](OC[C@@]1(c2ccccc2)CC[C@]2(CCC(=O)N2)CN1)c1cc(C(F)(F)F)cc(C(F)(F)F)c1
~50 mg/mL

###

# method: Equilibrium solubility of Compound 1 (HPLC)
# Type: physicochemical
# condition parameters: 16% Captisol (sulfobutyl ether beta-cyclodextrin), aqueous with cosolvent or surfactant or cyclodextrin, thermodynamic from solid; 16% Captisol, pH 7.0
parameter: solubility thermodynamic

Request the reported solubility thermodynamic associated with C[C@@H](OC[C@@]1(c2ccccc2)CC[C@]2(CCC(=O)N2)CN1)c1cc(C(F)(F)F)cc(C(F)(F)F)c1 [Compound 1]
< 6 µg/mL

###

# method: pKa of Compound 1
# Type: physicochemical
parameter: pKa
Form field (numeric): enter value without unit.

Suppose we examine the molecule C[C@@H](OC[C@@]1(c2ccccc2)CC[C@]2(CCC(=O)N2)CN1)c1cc(C(F)(F)F)cc(C(F)(F)F)c1 ; what pKa value has been reported?
6.9
